Tgt: Human Calpain 1/NS1 (Homo sapiens, UniProt P07384)
Sequence (P07384 whole entry): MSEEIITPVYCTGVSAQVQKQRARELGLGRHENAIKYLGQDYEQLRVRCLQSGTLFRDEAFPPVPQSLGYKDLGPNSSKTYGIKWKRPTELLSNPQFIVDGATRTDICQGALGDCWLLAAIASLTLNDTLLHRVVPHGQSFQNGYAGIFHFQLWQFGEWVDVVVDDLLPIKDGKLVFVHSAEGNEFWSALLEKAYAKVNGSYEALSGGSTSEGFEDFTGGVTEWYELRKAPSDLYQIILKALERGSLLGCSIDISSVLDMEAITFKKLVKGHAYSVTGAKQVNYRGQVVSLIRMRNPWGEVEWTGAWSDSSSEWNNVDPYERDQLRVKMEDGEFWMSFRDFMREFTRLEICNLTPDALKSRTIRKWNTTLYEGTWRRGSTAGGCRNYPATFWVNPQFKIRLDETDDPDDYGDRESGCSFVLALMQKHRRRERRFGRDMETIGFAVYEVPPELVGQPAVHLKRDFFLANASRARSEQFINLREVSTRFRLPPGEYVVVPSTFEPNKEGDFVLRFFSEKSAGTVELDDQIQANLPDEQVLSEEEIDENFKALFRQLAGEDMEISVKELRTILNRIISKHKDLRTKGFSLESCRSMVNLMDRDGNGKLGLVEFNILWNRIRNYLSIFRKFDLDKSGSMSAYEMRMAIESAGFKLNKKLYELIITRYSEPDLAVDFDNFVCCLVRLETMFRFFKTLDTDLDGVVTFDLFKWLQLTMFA
Sequence (P04632 whole entry partner): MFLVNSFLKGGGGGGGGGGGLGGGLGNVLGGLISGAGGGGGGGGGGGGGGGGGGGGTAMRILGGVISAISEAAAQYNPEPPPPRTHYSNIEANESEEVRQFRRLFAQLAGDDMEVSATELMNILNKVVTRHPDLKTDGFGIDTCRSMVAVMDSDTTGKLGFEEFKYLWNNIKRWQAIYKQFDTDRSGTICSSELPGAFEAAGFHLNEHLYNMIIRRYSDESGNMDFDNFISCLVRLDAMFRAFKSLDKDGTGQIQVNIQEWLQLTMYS
Measurement Protocol: Calpain inhibition continuous fluorescence (FRET) assay, Human Calpain 1/NS1
Type: biochemical
Test Parameters: Column A; read-out: Human Calpain 1/NS1 IC50
pIC50: −log10 of the molar value.
Endpoint: pIC50

Here is how some compounds turned out for pIC50.
INSERT INTO measurements (compound, endpoint, result) VALUES
  ('Cc1nsc(-c2ccccc2)c1C(=O)N[C@@H](Cc1ccccc1)C(=O)C(N)=O [Compound 96]', 'pIC50', '> 5.52'),
  ('Cc1nc(-c2ccccc2)c(C(=O)N[C@@H](Cc2ccccc2)C(=O)C(N)=O)o1 [Compound 26]', 'pIC50', '> 5.52'),
  ('Cc1noc(-c2ccccc2)c1C(=O)N[C@@H](Cc1ccccc1)C(=O)C(=O)NCc1ccc(S(C)(=O)=O)cc1 [Compound 151]', 'pIC50', '> 5.52'),
  ('NC(=O)C(=O)[C@H](Cc1ccccc1)NC(=O)c1cncn1-c1ncc(-c2ccccc2)s1 [Compound 52]', 'pIC50', '> 5.52'),
  ('Cc1cc(C(=O)N[C@@H](Cc2ccccc2)C(=O)C(N)=O)n(-c2ncccc2C)n1 [Compound 66]', 'pIC50', '5.00 to 5.52');

Prompt: Reported pIC50 for NC(=O)C(=O)[C@H](Cc1ccccc1)NC(=O)c1ccnn1-c1ccccc1 [Compound 10] : what is it?
Response: > 5.52

Prompt: Request: Cn1nnc(-c2ccccc2)c1C(=O)N[C@@H](Cc1ccccc1)C(=O)C(N)=O [Compound 261]
Response: > 5.52

Prompt: Request: NC(=O)C(=O)[C@H](Cc1ccccc1)NC(=O)c1cncn1-c1n[nH]c2ccccc12 [Compound 69]
Response: > 5.52

Prompt: Request: O=C(NC1CC1)C(=O)[C@H](Cc1ccccc1)NC(=O)c1cncn1-c1n[nH]c2ccccc12 [Compound 51]
Response: 5.00 to 5.52

Prompt: Request: Cc1cc(C(=O)N[C@@H](Cc2ccccc2)C(=O)C(N)=O)n(-c2ncc(-c3ccccc3)s2)n1 [Compound 113]
Response: > 5.52

Prompt: Request: Cc1cc(C(=O)N[C@@H](Cc2ccccc2)C(=O)C(=O)NC2CC2)n(-c2cccnc2)n1 [Compound 132]
Response: > 5.52

Prompt: Request: NC(=O)C(=O)[C@H](Cc1ccccc1)NC(=O)c1scnc1-n1cc(-c2ccccc2)cn1 [Compound 39]
Response: > 5.52

Prompt: Request: Cc1cc(C(=O)N[C@@H](Cc2ccccc2)C(=O)C(N)=O)c(-c2ccccc2)o1 [Compound 118]
Response: > 5.52

Prompt: Request: O=C(NC1CC1)C(=O)[C@H](Cc1ccccc1)NC(=O)c1cncn1-c1ccccn1 [Compound 41]
Response: 5.00 to 5.52

Prompt: Request: O=C[C@H](Cc1ccccc1)NC(=O)c1cncn1-c1ccc(-c2ncco2)cn1 [Compound 111]
Response: > 5.52

Prompt: Request: Cn1cc(C(=O)N[C@@H](Cc2ccccc2)C(=O)C(N)=O)c(-c2cncnc2)n1 [Compound 173]
Response: > 5.52
